Target: T1, native PRLR expressing T47D cells (Homo sapiens, UniProt P16471)
T1 construct: a native PRLR expressing cell line (T47D); endogenous in cells; host or cells: T47D
T1 sequence (P16471 25-622): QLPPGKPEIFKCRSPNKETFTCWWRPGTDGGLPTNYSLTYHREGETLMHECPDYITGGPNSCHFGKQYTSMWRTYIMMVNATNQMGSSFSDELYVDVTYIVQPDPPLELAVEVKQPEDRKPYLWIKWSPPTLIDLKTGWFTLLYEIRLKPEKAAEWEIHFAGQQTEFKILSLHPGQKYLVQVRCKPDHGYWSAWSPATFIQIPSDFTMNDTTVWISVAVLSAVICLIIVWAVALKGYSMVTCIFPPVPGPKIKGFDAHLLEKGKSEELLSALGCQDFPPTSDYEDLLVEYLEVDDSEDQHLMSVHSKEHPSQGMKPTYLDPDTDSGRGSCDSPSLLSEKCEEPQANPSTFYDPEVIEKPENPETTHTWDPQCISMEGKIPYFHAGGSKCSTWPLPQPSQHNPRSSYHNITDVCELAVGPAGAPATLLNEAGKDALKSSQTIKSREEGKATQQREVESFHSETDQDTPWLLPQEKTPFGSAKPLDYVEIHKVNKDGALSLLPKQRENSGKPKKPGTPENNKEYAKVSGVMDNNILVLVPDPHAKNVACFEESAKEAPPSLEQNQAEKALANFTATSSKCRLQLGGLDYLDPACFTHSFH
Assay: FACS cell surface binding
observation-type: FACS Cell Binding (Fold Above Background)
Answer in Fold Above Background, number only, no unit symbol.

These recorded examples may help you get a feel for the data.
H1H6801P: fully human anti-PRLR antibody, human IgG1 Fc; HCVR/LCVR SEQ ID NOs 210/218 (antibody, V domains shown) VH: QVQLQQSGPGLVKPSQTLSLTCVISGDSVSSNTAWNWVRQSPSRGLEWLGRTYYRSKWYNDYAVSVKSRITINPDTSKNQFSLLMNSVTPEDTAVYYCARVVRGLNYFDYWGQGTLVTVSS VL: DIVMTQSPDSLAVSLGERATINCKSSQSVLYNSNNKNYLAWYQQKPGQPPKLLIYWSSSRESGVPDRFSGSGSGTDFTLTISGLQAEDVAIYYCQQYSTIPYTFGQGTKLEIK :: 45
H1H6790P: fully human anti-PRLR antibody, human IgG1 Fc; HCVR/LCVR SEQ ID NOs 114/122 (antibody, V domains shown) VH: EVQLVESGGGLVQPGGSLRLSCAASGFTFSSYAMTWVRQAPGKGLEWVSAITGSVGNTYYADSVKGRFTISRDNSKNTLYLQMNSLGAEDTAEYYCAKGAGMTTNWYLDLWGRGTLVTVSS VL: DIVMTQSPDSLAVSLGARATINCKSSQSVLYSSNNQNYLTWYQQKPGQPPKLLIKWASTRESGVPDRFSGSGSGTDFTLTISSLQAEDVAVYYCQQYASSPYTFGQGTKLEIK :: 34

Attention now shifts to the item below.
Quick one: FACS Cell Binding of H1H6800P: fully human anti-PRLR antibody, human IgG1 Fc; HCVR/LCVR SEQ ID NOs 194/202 (antibody, V domains shown) VH: EVQLVESGGGLVQPGRSLRLSCAASGFTFDGYAMHWVRQGPGKGLEWVSGISWYSDTLGYADSVKGRFTISRDNAKNSLYLQMNSLRTEDTAFYYCAKISSSGWAFDYWGQGTLVTVSS VL: EIVLTQSPGTLSLSPGERATLSCRASHSVSSAYLAWYQQKPGQTPRLLIYGTSSRATGIPDRFSGSGSGTDFTLTISRLEPEDFAVYYCQQYGSSPLFTFGPGTKVDIK ? 41
